assay: Human Caco-2 passive permeability A to B Papp; type: in vitro ADME; details: apical pH 6.5, basolateral pH 7.4, with efflux transporter inhibitor cocktail
Measurement name: Papp at 2 h (×10⁻⁶ cm/s)
Answers are plain numbers, in ×10⁻⁶ cm/s.

Name the reported Papp at 2 h value associated with the compound COc1cc(OCCNCCCF)ncc1[C@@H]1c2[nH]c3ccccc3c2C[C@@H](C)N1CC(F)F [Example 40] 14

###

target: Estrogen Receptor (ERα) in MCF-7 cells (Homo sapiens (Human)); test: MCF-7 ER down-regulation assay (immuno-fluorescence); conditions: 18-22 hours incubation
Sequence (P03372 whole entry): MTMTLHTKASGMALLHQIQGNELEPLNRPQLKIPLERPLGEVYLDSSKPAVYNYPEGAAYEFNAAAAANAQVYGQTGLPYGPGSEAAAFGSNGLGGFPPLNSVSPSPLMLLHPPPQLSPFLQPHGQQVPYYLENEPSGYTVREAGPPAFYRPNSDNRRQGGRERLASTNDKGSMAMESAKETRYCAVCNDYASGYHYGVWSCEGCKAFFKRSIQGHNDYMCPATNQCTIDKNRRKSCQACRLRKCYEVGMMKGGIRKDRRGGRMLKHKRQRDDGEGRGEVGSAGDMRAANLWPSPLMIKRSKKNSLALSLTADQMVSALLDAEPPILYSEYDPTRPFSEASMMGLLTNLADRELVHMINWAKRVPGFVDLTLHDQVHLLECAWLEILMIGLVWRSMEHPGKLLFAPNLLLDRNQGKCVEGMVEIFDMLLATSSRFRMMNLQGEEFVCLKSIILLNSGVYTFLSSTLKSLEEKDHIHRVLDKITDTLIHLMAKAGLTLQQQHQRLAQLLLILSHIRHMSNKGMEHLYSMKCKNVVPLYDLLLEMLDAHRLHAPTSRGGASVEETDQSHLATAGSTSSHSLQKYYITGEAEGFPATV
Please go through the items and note down their pIC50.
Answers are plain numbers, as −log10 of the molar value.

Field: example entries. Status: answers known.
smiles_record=COc1cc(OCCNCCCF)cnc1[C@@H]1c2[nH]c3ccccc3c2C[C@@H](C)N1CC(C)(C)F test_value=9.55
smiles_record=COc1cc(OCCNCCCF)ccc1[C@@H]1c2[nH]c3ccccc3c2C[C@@H](C)N1CC(C)(F)F test_value=9.85
smiles_record=C[C@@H]1Cc2c([nH]c3ccccc23)[C@@H](c2cnc(OCCNCCCF)cn2)N1CC(F)F test_value=9.06

Proceed to the following item.
I'm curious: which pIC50 was measured for COc1cc(NCCNCCCF)ncc1[C@@H]1c2[nH]c3ccccc3c2C[C@@H](C)N1CC(C)(F)F tested on Estrogen Receptor (ERα) in MCF-7 cells (Homo sapiens (Human))? 9.48

###

assay: Thermodynamic solubility (shake flask); format: physicochemical; conditions: aqueous phosphate buffer, 25 °C, pH 7.4, aqueous buffer, thermodynamic from solid, aqueous phosphate buffer pH 7.4, 24 hours
Classify as follows. Reported solubility at 24 h greater than or equal to 800 µM: TRUE. Reported solubility at 24 h below: FALSE.

Use these answered entries as a reference point.
smiles_record=COc1cc(OCCNCCCF)ccc1[C@@H]1c2[nH]c3ccccc3c2C[C@@H](C)N1CC(F)(F)F assigned_class=FALSE
smiles_record=C[C@@H]1Cc2c([nH]c3ccccc23)[C@@H](c2ccc(OCCNCCCF)cn2)N1CC1(F)CC1 assigned_class=FALSE

Is reported solubility at 24 h greater than or equal to 800 µM here: COc1cc(NCCNCCCF)ccc1[C@@H]1c2[nH]c3ccccc3c2C[C@@H](C)N1CC1(F)COC1 TRUE

Is reported solubility at 24 h greater than or equal to 800 µM here: C[C@@H]1Cc2c([nH]c3ccccc23)[C@@H](c2cnc(OCCNCCCF)cc2F)N1CC1(F)COC1 FALSE

Is reported solubility at 24 h greater than or equal to 800 µM here: COc1nc(OCCNCCCF)ccc1[C@@H]1c2[nH]c3ccccc3c2C[C@@H](C)N1CC(C)(F)F FALSE

###

Please go through the items and note down their solubility at 24 h.
assay: Thermodynamic solubility (shake flask); format: physicochemical; conditions: aqueous phosphate buffer, 25 °C, pH 7.4, aqueous buffer, thermodynamic from solid, aqueous phosphate buffer pH 7.4, 24 hours
One number for each entry, in µM.

Field: example entries. Status: answers known.
compound="COCC(F)(F)CN1[C@H](c2c(F)cc(OCCNCCCF)cc2F)c2[nH]c3ccccc3c2C[C@H]1C [Example 14]" test_value=10
compound="COc1cc(OCCNCCCF)ncc1[C@@H]1c2[nH]c3ccccc3c2C[C@@H](C)N1CC(C)(F)F [Example 42]" test_value=220
compound="C[C@H](COc1ccc([C@@H]2c3[nH]c4ccccc4c3C[C@@H](C)N2CC2(F)COC2)cc1)NCCCF [Example 28]" test_value=354
compound="C[C@@H]1Cc2c([nH]c3ccccc23)[C@@H](c2ccc(OCCNCCCF)cc2F)N1CC1(F)CC1 [Example 21]" test_value=149
compound="COc1cc(NCCNCCCF)ncc1[C@@H]1c2[nH]c3ccccc3c2C[C@@H](C)N1CC(C)(F)F [Example 68]" test_value=438

Proceed to the following item.
Name the reported solubility at 24 h value associated with the compound COc1cc(OCCNCCCF)ncc1[C@@H]1c2[nH]c3ccccc3c2C[C@@H](C)N1CC(F)(F)CO [Example 64] 849
